Where do the numbers come from? From patent US20210340181A1.

As shown below, each of these binders has a reported pIC50 value.
# SUBJECT OF TEST: T1, αvβ8 integrin (purified), P06756
# T1 chain 1: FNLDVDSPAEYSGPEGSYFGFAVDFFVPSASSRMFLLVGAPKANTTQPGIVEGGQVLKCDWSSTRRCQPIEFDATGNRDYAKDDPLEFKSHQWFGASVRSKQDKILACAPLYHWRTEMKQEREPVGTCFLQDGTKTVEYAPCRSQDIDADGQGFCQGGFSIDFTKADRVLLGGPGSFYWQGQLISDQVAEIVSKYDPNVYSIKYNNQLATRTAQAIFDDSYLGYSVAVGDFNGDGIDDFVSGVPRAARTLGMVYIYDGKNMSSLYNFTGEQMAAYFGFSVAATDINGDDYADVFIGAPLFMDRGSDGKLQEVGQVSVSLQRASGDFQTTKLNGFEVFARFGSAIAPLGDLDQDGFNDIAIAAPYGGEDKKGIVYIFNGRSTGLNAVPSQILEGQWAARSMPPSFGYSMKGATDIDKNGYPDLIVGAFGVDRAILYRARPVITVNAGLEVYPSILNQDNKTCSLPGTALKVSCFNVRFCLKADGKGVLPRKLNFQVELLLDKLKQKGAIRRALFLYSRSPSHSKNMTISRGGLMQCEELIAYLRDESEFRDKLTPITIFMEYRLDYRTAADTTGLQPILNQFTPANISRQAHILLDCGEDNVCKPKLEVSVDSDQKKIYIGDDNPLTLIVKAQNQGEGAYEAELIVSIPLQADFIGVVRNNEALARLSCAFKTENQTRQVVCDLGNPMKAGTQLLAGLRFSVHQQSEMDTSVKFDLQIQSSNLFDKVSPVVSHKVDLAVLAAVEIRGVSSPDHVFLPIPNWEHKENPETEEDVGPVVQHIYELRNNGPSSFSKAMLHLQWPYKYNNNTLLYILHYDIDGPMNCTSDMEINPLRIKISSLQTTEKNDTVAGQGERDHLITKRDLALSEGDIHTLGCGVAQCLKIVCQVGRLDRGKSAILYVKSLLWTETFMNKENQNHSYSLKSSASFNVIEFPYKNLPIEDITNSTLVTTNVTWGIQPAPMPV
# T1 chain 2: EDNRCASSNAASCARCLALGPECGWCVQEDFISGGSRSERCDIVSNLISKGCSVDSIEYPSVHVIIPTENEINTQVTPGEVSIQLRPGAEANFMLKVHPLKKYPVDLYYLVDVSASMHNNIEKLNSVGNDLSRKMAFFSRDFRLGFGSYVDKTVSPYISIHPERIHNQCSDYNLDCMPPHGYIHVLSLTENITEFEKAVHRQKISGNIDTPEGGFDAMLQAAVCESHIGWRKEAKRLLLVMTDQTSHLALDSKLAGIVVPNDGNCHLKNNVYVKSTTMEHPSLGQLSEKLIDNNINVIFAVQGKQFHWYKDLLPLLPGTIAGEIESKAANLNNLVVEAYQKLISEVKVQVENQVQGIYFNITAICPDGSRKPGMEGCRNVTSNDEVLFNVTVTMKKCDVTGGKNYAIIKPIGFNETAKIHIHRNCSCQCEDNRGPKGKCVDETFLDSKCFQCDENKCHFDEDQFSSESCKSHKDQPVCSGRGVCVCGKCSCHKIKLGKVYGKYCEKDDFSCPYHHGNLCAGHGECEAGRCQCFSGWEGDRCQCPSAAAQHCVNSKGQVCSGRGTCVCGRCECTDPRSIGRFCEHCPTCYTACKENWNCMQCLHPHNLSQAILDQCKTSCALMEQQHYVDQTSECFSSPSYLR
# ASSAY PROTOCOL: competitive ELISA vs BtLAP
pIC50: −log10 of the molar value.
TEST READOUT: pIC50

>>> experimental_value("VGDLTYLKK (modifications not checked) [P1, …(FB)]")
5.28
>>> experimental_value("RGDLADLRK (modifications not checked) [P3, …(FB)]")
6.70
